These data points were gathered from PubChem BioAssay.

test.description: P. aeruginosa biofilm formation inhibitors, primary screen, PAO1 strain, BacTiter-Glo luminescence, LB-PBS (AID 1144)
cond: 12 h, higher = more signal
The source made the active and inactive calls. How the calls were made is not given here.
reported.endpoint: z-score

Example molecules with recorded z-score:
Q: What value of measured z-score is listed for C=C[C@H](COC(C)=O)N(Cc1ccc(OC(C)=O)c(OC)c1)S(=O)(=O)c1ccc(Br)cc1 ?
Ans: -0.569 (inactive)

Q: Given the molecule O=c1oc(-c2ccccc2)nc2cc(Br)ccc12 , what is its reported z-score?
Ans: 0.786 (inactive)

Q: Quick one: z-score of COC(=O)[C@@]1(Cc2ccc(OC)cc2)[C@H]2c3cc(C(=O)N4CCCC4)n(Cc4ccccn4)c3C[C@H]2CN1C(=O)c1ccccc1 ?
Ans: 0.621 (inactive)

Q: Given O=C1O[C@H](c2ccccc2)[C@H](c2ccccc2)N2[C@H]1[C@@H](C(=O)Nc1nc3ccccc3s1)[C@]1(C(=O)Nc3ccccc31)[C@H]2c1ccc(O)cc1 , state its recorded z-score.
Ans: -0.363 (inactive)

Q: What value of z-score has been recorded for this entry: O=C1O[C@@H](c2ccccc2)[C@@H](c2ccccc2)N2[C@@H](c3ccc(OCCO)cc3)[C@]3(C(=O)Nc4ccc(C#CC5=CCCCC5)cc43)[C@@H](C(=O)O)[C@H]12
Ans: -0.761 (inactive)

Q: Using the record for C=CCNC(=O)[C@@H]1[C@H]2C(=O)O[C@H](c3ccccc3)[C@H](c3ccccc3)N2[C@H](c2ccccc2OCCO)[C@@]12C(=O)Nc1ccc(C#CC3=CCCCC3)cc12 , report its z-score.
Ans: -1.43 (inactive)

API: the following record is the query input.
Q: What value of measured z-score is listed for [N-]=[N+]=NCc1ccccc1C[C@]1(C(=O)O)N=C(c2ccc(OCCCO)cc2)O[C@H]1c1ccccc1CN=[N+]=[N-] ?
Ans: -0.046 (inactive)

###

assay.target: Epidermal growth factor receptor (Homo sapiens) (UniProt P00533)
Sequence (P00533 whole entry, looked up): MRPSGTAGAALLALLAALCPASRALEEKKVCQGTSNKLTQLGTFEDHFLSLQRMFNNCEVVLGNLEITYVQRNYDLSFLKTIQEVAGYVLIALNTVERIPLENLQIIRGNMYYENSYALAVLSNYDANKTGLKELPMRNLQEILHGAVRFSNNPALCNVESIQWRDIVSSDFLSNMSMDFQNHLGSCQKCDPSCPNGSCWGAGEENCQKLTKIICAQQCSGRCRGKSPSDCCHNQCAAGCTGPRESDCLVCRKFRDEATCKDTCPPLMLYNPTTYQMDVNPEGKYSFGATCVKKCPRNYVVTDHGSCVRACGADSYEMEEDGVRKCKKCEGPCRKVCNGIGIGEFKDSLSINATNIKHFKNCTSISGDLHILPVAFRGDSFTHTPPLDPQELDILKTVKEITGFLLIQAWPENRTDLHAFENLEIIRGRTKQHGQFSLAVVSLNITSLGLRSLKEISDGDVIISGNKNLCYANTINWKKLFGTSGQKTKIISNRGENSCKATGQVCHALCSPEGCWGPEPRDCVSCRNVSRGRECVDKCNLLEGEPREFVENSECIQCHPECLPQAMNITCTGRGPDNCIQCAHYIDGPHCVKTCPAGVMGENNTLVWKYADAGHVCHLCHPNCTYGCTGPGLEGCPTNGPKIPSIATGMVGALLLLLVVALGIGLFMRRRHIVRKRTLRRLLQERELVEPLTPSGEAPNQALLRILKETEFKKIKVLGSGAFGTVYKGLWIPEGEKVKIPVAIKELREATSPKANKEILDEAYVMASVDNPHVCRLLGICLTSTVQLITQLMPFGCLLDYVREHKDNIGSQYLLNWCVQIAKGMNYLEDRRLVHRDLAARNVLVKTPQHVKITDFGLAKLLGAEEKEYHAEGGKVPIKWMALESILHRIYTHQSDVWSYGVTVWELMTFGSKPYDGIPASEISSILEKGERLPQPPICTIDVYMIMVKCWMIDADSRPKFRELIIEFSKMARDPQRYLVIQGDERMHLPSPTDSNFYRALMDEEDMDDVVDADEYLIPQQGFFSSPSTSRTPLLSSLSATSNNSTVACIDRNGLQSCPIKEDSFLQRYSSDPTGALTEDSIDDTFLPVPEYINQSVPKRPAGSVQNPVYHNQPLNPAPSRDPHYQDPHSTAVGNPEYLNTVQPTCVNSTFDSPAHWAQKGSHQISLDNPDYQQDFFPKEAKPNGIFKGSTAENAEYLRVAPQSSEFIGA
test.description: EGFR binders on small-molecule microarrays, primary screen, biochemical, small-molecule microarray, 635 nm fluorescence (AID 1104);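 further: score merges 667 nm emission intensity with spot signal to noise over triplicate slides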
cond: EGFR binding, higher = more signal
Property: composite z-score; scope: individual molecules
// no unit, no text: just the number

Some solved entries appear below for comparison.
Q: Recorded composite z-score for [N-]=[N+]=Nc1ccccc1C[C@]1(C(=O)NCCN2CCOCC2)N=C(c2ccc(OCCCO)cc2)O[C@H]1c1ccccc1 , please?
Ans: -0.117

Q: Any idea what its composite z-score is? The molecule is O=C1O[C@H](c2ccccc2)[C@H](c2ccccc2)N2[C@H]1[C@@H](C(=O)Nc1nc3ccccc3s1)[C@]1(C(=O)Nc3ccccc31)[C@H]2c1ccc(O)cc1
Ans: 0.598

Q: What composite z-score value was documented for this molecule, CC(C)Cc1ccc(CN2CC[C@@H](NS(=O)(=O)c3ccccc3)C2)cc1 ?
Ans: -0.608

Q: State the recorded composite z-score for this entry: COCCOC(=O)N1C(=O)[C@@]2(c3ccccc31)[C@H](C(=O)Nc1nc3ccccc3s1)[C@H]1C(=O)O[C@H](c3ccccc3)[C@H](c3ccccc3)N1[C@@H]2c1ccc(OCCO)cc1
Ans: 0.331

Q: Item under review: CCOC(=O)C1=C[C@@H](CC)N(S(=O)(=O)c2ccc(C)cc2)[C@H]1c1ccccc1 . Reported composite z-score?
Ans: 0.586

Q: Dear colleague, I am looking for the recorded composite z-score of the following molecule: C=C(CCCC)/C(=C/C[C@H](OC(C)=O)c1ccc(CO)o1)c1cnc2ccccc2c1
Ans: 0.497

Continuing:
Q: Which composite z-score value is on record for C=CC(COC(C)=O)NS(=O)(=O)c1ccc(Br)cc1 (stereo not given) ?
Ans: 0.642

Q: If you can, please state the reported composite z-score value of CC(C)c1ccc(NN2C(C(O)c3ccc(N(C)C)cc3)C=CC3C(=O)N(c4ccccc4)C(=O)C32)cc1 (stereo not given) .
Ans: 0.0151

Q: Find the recorded composite z-score belonging to COc1ccc([Si](C)(C)[C@H]2[C@H](CCn3cc([C@H](O)c4ccccc4)nn3)O[C@@]3(C(=O)N(Cc4cccc(N5CCC5=O)c4)c4ccccc43)[C@@H]2C)cc1 and report it.
Ans: -0.0533

Q: Quick check: composite z-score of CN(C)C(=O)[C@]1(CCC(=O)OC(C)(C)C)N=C(c2ccc(OCCCO)cc2)O[C@@H]1c1ccccc1N=[N+]=[N-] ?
Ans: 0.17

Q: Sample COCCOC(=O)N1C(=O)[C@@]2(c3cc(C#CCCO)ccc31)[C@H](c1ccccc1OCCO)N1[C@H](c3ccccc3)[C@H](c3ccccc3)OC(=O)[C@H]1[C@@H]2C(=O)N1CCN(c2ncccn2)CC1 — what was its composite z-score?
Ans: 0.965

Q: Give the measured composite z-score of COC(=O)[C@@]1(Cc2ccccc2)[C@H]2c3cc(C(=O)N4CCCC4)n(C)c3C[C@H]2CN1C(=O)c1ccccc1 .
Ans: -0.141

Q: Entry COC(=O)[C@@]1(Cc2ccc(OC)cc2)[C@H]2c3cc(C(=O)N4CCCC4)n(CCc4c[nH]c5cc(F)ccc45)c3C[C@H]2CN1C(=O)c1ccccc1 : reported composite z-score = ?
Ans: 0.0022

Q: # composite z-score lookup, item COC(=O)[C@@]1(Cc2ccccc2N=[N+]=[N-])COC(c2ccc(OCCCO)cc2)=N1
Ans: -0.3

Q: What does the data say about its composite z-score? Entry: CN1CCC(CCCO)=CC1c1ccc(CN2CCCC2)cc1 (stereo not given)
Ans: 1.64

###

assay.target: Dihydroorotate dehydrogenase (quinone), mitochondrial (Plasmodium falciparum (isolate 3D7)) (UniProt Q08210)
Sequence (Q08210 whole entry, looked up): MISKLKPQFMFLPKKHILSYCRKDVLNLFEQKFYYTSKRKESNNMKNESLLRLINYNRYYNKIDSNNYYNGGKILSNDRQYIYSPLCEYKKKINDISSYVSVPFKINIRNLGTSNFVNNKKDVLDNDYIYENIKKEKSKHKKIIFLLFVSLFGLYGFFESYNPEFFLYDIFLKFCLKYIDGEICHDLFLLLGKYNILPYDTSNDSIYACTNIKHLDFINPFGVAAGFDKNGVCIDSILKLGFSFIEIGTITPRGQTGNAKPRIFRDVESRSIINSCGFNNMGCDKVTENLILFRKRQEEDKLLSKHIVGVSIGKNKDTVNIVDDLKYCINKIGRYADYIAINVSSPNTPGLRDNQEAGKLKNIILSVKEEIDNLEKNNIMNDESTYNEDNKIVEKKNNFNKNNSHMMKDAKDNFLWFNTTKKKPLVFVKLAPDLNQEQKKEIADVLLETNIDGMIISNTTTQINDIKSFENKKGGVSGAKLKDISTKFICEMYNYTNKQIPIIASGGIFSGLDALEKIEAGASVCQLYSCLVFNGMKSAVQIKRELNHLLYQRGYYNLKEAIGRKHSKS
test.description: PfDHODH enzyme inhibitors, primary screen, biochemical, C-terminal His tag, absorbance 600 nm (AID 1175);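 further: recombinant parasite enzyme with a five histidine tag at its C terminus; test concentration not given here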
cond: DCIP absorbance 600 nm, higher = more signal, called active from +8 up or from −8 down
Note: every record was labeled by where its composite z-score sits among lowest (below -0.4), middle (-0.4 to below 0.2), highest (0.2 or more)

Q: Looking at O=C1OCC=C[C@H]2OC34C=CCN(c5ccc(Cl)cc5)C(=O)[C@H]3N(CCCCCCO)C(=O)[C@@H]4[C@@H]12 (stereo not given in full) , which class would you pick?
Ans: lowest

Q: Assign a category based on measured composite z-score for N#Cc1ccc(NN2C(C(O)c3cccs3)C=CC3C(=O)N(c4ccccc4)C(=O)C32)cc1 (stereo not given) and give only the class name.
Ans: lowest

Q: Each molecule maps to one class by composite z-score. Which class for O=c1cccc(CCc2ccccc2)o1 ?
Ans: lowest

Q: Please let me know in which category the item CC(C)c1ccc(NN2C(C(O)c3cccc(O)c3)C=CC3C(=O)N(c4ccccc4)C(=O)C32)cc1 (stereo not given) belongs.
Ans: highest

Q: Bin this entry: C=CCNC(=O)[C@@H]1[C@H]2C(=O)O[C@H](c3ccccc3)[C@H](c3ccccc3)N2[C@H](c2ccccc2OCCO)[C@@]12C(=O)Nc1ccc(C#CC3=CCCCC3)cc12
Ans: highest

###

Items are presented alongside their recorded composite z-score.
test.description: small-molecule microarray binders of probe aNog, primary screen, biochemical, biotinylated probe, 635/667 nm fluorescence (AID 1115);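 further: probe is biotinylated aNog protein used at 0.15 µg/mL for 1 h at 4 C; z-score combines 667 nm fluorescence of each spot with its signal to noise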
cond: higher = more signal
Provide a numeric answer; units are not to be included.

Worked cases, answers included:
Q: Give its composite z-score value. Item: CCCCC(CC)C(O)C1C=CC2C(=O)N(c3ccccc3)C(=O)C2N1Nc1ccccc1 (stereo unspecified)
Ans: -0.259

Q: Any idea what its composite z-score is? The compound is Cc1ccc(S[C@]2(C(=O)NC3CC3)CC(=O)N(Cc3ccccc3)[C@@H]2c2ccc(CO)cc2)cc1
Ans: 0.314

Q: Using the record for COC(=O)[C@@]1(Cc2ccccc2N=[N+]=[N-])COC(c2ccc(OCCCO)cc2)=N1 , report its composite z-score.
Ans: 0.0531

---
Q: Given [N-]=[N+]=NCc1ccccc1C[C@@]1(C(=O)N2CCOCC2)N=C(c2ccc(OCCCO)cc2)O[C@@H]1c1ccccc1CN=[N+]=[N-] , state its recorded composite z-score.
Ans: -0.434

Q: composite z-score for CC1CC/C=C\[C@H]2OC34C=CCN(Cc5ccccc5)C(=O)[C@H]3N(CCCCCO)C(=O)[C@@H]4C2C(=O)O1 (stereo partly specified) ?
Ans: -0.0704

Q: GET /values?readout=composite z-score&item= O=C1N(CCS(=O)(=O)c2ccccc2)Cc2ccccc2C[C@]12N=C(c1ccc(OCCCO)cc1)O[C@@H]2c1ccccc1
Ans: 1.21

Q: Name the reported composite z-score value associated with the compound COc1ccc([Si](C)(C)[C@@H]2[C@@H](CCn3cc([C@H](O)c4ccccc4)nn3)O[C@]3(C(=O)N(Cc4ccc(N5C(=O)c6cccc7cccc5c67)cc4)c4ccccc43)[C@H]2C)cc1
Ans: -0.131

Q: Need composite z-score, item CCCN1C(=O)[C@]2(COC(c3ccc(OCCCO)cc3)=N2)Cc2ccccc21
Ans: 0.705

Q: Name the reported composite z-score value associated with the compound CC(=O)Nc1cc(Br)ccc1C(=O)O
Ans: -0.122

Q: Requested read-out: composite z-score. Entry: C=CC[C@@]1(C(=O)O)N=C(c2ccc(OCCCO)cc2)O[C@@H]1c1ccccc1N=[N+]=[N-]
Ans: 1.24

Q: Look at this compound and give its reported composite z-score. O=C/C=C/c1ccc2c(c1)OCO2
Ans: -0.441

Q: Fill blank: measured composite z-score of the compound C=C(COC)C(=O)CC[C@@H](OC(=O)c1cccnc1)c1ccc(CO)o1 is ____.
Ans: 0.094

Q: Recorded composite z-score of COCCOC(=O)N1C(=O)[C@@]2(c3cc(C#CCCO)ccc31)[C@H](c1ccc(O)cc1)N1[C@H](c3ccccc3)[C@H](c3ccccc3)OC(=O)[C@H]1[C@@H]2C(N)=O , please.
Ans: 0.0157

Q: Entry O=C1O[C@H](c2ccccc2)[C@H](c2ccccc2)N2[C@H]1[C@@H](C(=O)O)[C@]1(C(=O)Nc3ccc(C#CC4=CCCCC4)cc31)[C@H]2c1ccc(OCCO)cc1 : reported composite z-score = ?
Ans: 1.17

Q: composite z-score for Cc1c(NC(=O)CC#N)c(=O)n(-c2ccccc2)n1C ?
Ans: -0.434

Q: What value of composite z-score has been recorded for this entry: CCOC(=O)C[C@H]1[C@H](OC(=O)c2ccc(-c3ccccc3)cc2)[C@@H](NC(=O)c2ccc3ccccc3c2)c2cc(OCCCO)ccc2N1C(=O)Cc1ccc(OC)cc1
Ans: -0.0209

Q: For the compound CCCCC=C[C@@H](NC(=O)c1ccco1)c1ccccc1 , what composite z-score is on record?
Ans: 0.531

Q: Data request, read-out composite z-score, for Cc1ccc(F)cc1S(=O)(=O)N[C@@H]1CCN(Cc2ccc(-c3ccccc3)cc2)C1
Ans: -0.316

Q: Query (compound): COc1ccc(C(O)C2C=CC3C(=O)N(c4ccccc4)C(=O)C3N2Nc2ccc([N+](=O)[O-])cc2)cc1OCc1ccccc1 (stereo unspecified) ; field requested: composite z-score
Ans: 2.27

Q: What value of composite z-score has been reported for the following compound? O=C1OCC=C[C@H]2OC34C=CCN(c5ccc(Cl)cc5)C(=O)[C@H]3N(CCCCCCO)C(=O)[C@@H]4[C@@H]12 (stereo partly specified)
Ans: 0.46

Q: Could you share which composite z-score value was measured for CC(=O)NCCCC[C@@H]1NC(=O)[C@H]2C[C@@H](C(=O)NCCCCCC[N+](C)(C)C)[C@@H](c3cccc(OCCO)c3)N2C1=O ?
Ans: 0.019

Q: For COc1ccc([Si](C)(C)[C@@H]2[C@@H](CC(=O)N(CCO)Cc3ccccc3)O[C@]3(C(=O)N(C)c4ccccc43)[C@H]2C)cc1 , what is its reported composite z-score?
Ans: 0.422

Q: Report composite z-score for COC(=O)[C@@]1(Cc2ccc(F)cc2)[C@H]2c3cc(C(=O)N4CCCC4)n(Cc4cccc5ccccc45)c3C[C@H]2CN1C(=O)c1ccccc1 please.
Ans: 1.36

Q: What composite z-score value was documented for this compound, O=C(OCCF)C1=CCC(c2cccc(Cl)c2)O1 (stereo unspecified) ?
Ans: -0.0784

Q: Any idea what composite z-score was measured for CC(C)(C)OC(=O)CC[C@]1(C(=O)N2CCCCC2)N=C(c2ccc(OCCCO)cc2)O[C@H]1c1ccccc1N=[N+]=[N-] ?
Ans: 0.207

Q: Find the recorded composite z-score belonging to CC(C)C[C@@H]1NC(=O)[C@H]2C[C@@H](C(=O)NCCCCCCNC(=O)CS)[C@@H](c3cccc(OCCO)c3)N2C1=O and report it.
Ans: -0.152
